Just for reference, patent US20240043542A1 is where these values come from.

target_or_test_system: T1, recombinant human B7-H4-huIgG1 (human)
T1 construct: also called B7-H4-extracellular domain (ECD)
T1 sequence (chain, as listed by the source limits assumed): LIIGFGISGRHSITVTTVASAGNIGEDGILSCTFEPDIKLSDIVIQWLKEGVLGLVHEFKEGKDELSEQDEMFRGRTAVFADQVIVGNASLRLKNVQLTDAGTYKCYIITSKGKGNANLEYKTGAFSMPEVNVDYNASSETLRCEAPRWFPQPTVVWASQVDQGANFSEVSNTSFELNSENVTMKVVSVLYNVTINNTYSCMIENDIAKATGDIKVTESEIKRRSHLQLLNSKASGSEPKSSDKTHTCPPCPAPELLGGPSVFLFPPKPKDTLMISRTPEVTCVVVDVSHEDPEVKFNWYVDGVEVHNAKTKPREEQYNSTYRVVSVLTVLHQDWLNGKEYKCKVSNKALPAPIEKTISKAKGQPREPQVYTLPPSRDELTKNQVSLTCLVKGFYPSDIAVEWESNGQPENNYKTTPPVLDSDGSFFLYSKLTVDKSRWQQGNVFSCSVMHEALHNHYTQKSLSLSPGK
assay_details: BLI, antigen on Protein A tips;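 further: Anti-B7-H4 antibodies assessed for affinity toward the B7-H4 extracellular domain using biolayer interferometry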
observable: koff (s⁻¹)
I only need the number, in s⁻¹, no unit after it.

Guide cases for koff, answers given:
- binder: "B7-H4 antibody 20502.1 (antibody, human IgG1, kappa, V domains shown, human IgG1/kappa) VH: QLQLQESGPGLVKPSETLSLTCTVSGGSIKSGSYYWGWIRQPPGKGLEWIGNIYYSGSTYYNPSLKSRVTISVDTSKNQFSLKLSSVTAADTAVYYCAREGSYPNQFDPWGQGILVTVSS VL: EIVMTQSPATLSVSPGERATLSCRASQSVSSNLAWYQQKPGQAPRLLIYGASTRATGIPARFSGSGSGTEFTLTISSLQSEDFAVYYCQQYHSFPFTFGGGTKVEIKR"
  reading_unit: "s⁻¹"
  koff: 0.0015
- binder: "B7-H4 antibody 20500 (antibody, human IgG1, kappa, V domains shown, human IgG1/kappa) VH: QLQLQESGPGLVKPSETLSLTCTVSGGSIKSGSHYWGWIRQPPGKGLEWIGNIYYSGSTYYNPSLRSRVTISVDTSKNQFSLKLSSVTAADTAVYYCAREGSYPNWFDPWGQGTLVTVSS VL: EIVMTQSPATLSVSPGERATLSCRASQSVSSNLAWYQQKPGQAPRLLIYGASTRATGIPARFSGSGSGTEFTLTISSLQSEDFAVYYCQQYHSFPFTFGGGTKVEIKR"
  reading_unit: "s⁻¹"
  koff: 0.00233

Next:
// sample B7-H4 antibody 15495 (antibody, human IgG1, kappa, V domains shown, human IgG1/kappa) VH: QVQLVQSGAEVKKPGSSVKVSCKASGGTFSSYAISWVRQAPGQGLEWMGGIIPIFGTASYAQKFQGRVTITADESTSTAYMELSSLRSEDTAVYYCARQQYDGRRYFGLWGRGTLVTVSS VL: EIVMTQSPATLSVSPGERATLSCRASQSVSSNLAWYQQKPGQAPRLLIYSASTRATGIPARFSGSGSGTEFTLTISSLQSEDFAVYYCQQVNVWPPTFGGGTKVEIKR , its koff was 0.0272
